The measured values listed here are drawn from the Human Domainome abundance scans (Beltran et al. 2025).

B1: WW domain-containing transcription regulator protein 1, residues 116 to 162; numbered along this chain, Q9GZV5 (parent)
chain: QSYDVTDELPLPPGWEMTFTATGQRYFLNHIEKITTWQDPRKAMNQP

# Variants of: B1
# protocol_summary: abundance fitness (aPCA) (normalised: wild type 0, dead -1); higher = more abundant; growth selection in yeast, the domain comes from the species named
# condition_info: Homo sapiens
reported_metric: abundance fitness
Number, no unit, nothing else.

Solved cases below.
mutant_code	reported_measurement
K33C	-0.198
Y26W	-0.587
W37V	-0.348
T6M	-0.008
N29R	-0.763

Inquiry: Item K42G : provide abundance fitness
Reply text: -0.141

Inquiry: Item P10A : provide abundance fitness
Reply text: -0.088

Inquiry: Item D39K : provide abundance fitness
Reply text: -0.736

Inquiry: Item M17Q : provide abundance fitness
Reply text: 0.037

Inquiry: Item R25M : provide abundance fitness
Reply text: -0.232

Inquiry: Item P47H : provide abundance fitness
Reply text: -0.577

Inquiry: Item F19A : provide abundance fitness
Reply text: -0.06

Inquiry: Item Q24Y : provide abundance fitness
Reply text: -0.424

Inquiry: Item K33G : provide abundance fitness
Reply text: 0.122

Inquiry: Item V5E : provide abundance fitness
Reply text: -0.088
